Molecular target: human CDK1 (cdc2) and cyclin B (Homo sapiens)
Sequence (P06493 whole entry): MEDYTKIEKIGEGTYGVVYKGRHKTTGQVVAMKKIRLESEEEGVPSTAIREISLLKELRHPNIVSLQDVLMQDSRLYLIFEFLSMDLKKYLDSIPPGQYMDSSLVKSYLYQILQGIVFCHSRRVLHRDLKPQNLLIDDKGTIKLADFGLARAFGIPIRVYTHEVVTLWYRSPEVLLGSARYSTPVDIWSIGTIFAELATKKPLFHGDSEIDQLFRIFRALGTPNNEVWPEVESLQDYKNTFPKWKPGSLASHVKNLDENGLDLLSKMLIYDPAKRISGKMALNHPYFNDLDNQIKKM
Sequence (P14635 whole entry partner): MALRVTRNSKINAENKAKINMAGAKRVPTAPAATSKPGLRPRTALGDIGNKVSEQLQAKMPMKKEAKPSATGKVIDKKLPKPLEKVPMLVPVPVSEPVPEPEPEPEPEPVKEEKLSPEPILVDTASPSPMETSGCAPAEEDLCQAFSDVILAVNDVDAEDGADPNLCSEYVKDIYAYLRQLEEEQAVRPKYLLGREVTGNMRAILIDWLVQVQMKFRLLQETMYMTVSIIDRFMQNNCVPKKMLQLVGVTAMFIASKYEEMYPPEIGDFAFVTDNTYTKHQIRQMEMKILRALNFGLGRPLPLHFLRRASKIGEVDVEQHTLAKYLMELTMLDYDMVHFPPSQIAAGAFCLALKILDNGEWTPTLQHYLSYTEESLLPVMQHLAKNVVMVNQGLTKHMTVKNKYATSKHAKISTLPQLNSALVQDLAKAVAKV
Test: Inhibition of CDK1(cdc2)/cyclin B histone H1 kinase activity
Conditions: read-out: Ki CDK 1/B
Structures can show the parent of a compound that is named as a salt.
METRIC: Ki (µM)
Answers are plain numbers, in µM.

Working through the 3 compounds below one at a time, give Ki for each.
1. Nc1nc(Nc2ccc3nc[nH]c3c2)sc1C(=O)c1c(Cl)cc(C(F)(F)F)cc1Cl
2. Cc1c(C(=O)c2sc(Nc3ccc4nc[nH]c4c3)nc2N)sc2ccccc12
3. Nc1nc(Nc2ccc(S(N)(=O)=O)cc2)sc1C(=O)c1c(F)cccc1C(F)(F)F

Key:
0.233
0.097
0.04

Parameters: items (list). Returns: Ki for each item.
1. CC1(C)CN(c2ccc(Nc3nc(N)c(C(=O)c4c(F)cccc4F)s3)cc2)CCN1
2. CNS(=O)(=O)c1ccc(Nc2nc(N)c(C(=O)c3c(F)cccc3F)s2)cc1
3. Nc1nc(Nc2ccc3nc[nH]c3c2)sc1C(=O)c1ccccc1[N+](=O)[O-]
4. Cc1ccsc1C(=O)c1sc(Nc2ccc(N3CCNCC3)cc2)nc1N [H(1), Trihydrochloride]
5. COc1ccc(Nc2nc(N)c(C(=O)c3ccccc3[N+](=O)[O-])s2)cc1
6. Cc1ccsc1C(=O)c1sc(Nc2ccc(N(C)CCN(C)C)cc2)nc1N
7. Cc1ccsc1C(=O)c1sc(Nc2ccc(C(=O)C3COC(=O)[C@H]3N)cc2)nc1N (stereo partly drawn)
8. Nc1nc(Nc2ccc3nc[nH]c3c2)sc1C(=O)c1c(Cl)cncc1Cl

Key:
1: 0.511; 2: 0.009; 3: 0.053; 4: 0.681; 5: 0.057; 6: 0.417; 7: 0.249; 8: 0.133

# map each compound to its Ki
1. Nc1nc(Nc2ccc(N3CCNCC3)cc2)sc1C(=O)c1c(F)cccc1F
2. COc1ccc(Nc2nc(N)c(C(=O)c3ccccc3C#N)s2)cc1
3. Nc1nc(Nc2ccc(S(N)(=O)=O)cc2)sc1C(=O)c1c(F)cc(F)cc1F
4. CC(C)(C)OC(=O)N1CCN(c2ccc(Nc3nc(N)c(C(=O)c4c(F)cccc4F)s3)cc2)CC1
5. Nc1nc(Nc2ccc(N3CCNCC3)cc2)sc1C(=O)c1c(F)cc(F)cc1F
6. Nc1nc(NCCc2ccccc2)sc1C(=O)c1ccccc1[N+](=O)[O-]
7. C[C@@H]1CN(c2ccc(Nc3nc(N)c(C(=O)c4c(F)cccc4F)s3)cc2)CCN1C

Key:
1: 0.405; 2: 0.2; 3: 0.05; 4: 0.32; 5: 2; 6: 0.293; 7: 0.68

###

System: U2-OS
Test: Inhibition of cell growth, MTT assay, U2-OS
Assay type: cell-based
Conditions: Homo sapiens, U2OS
Exercise: state measured pIC50 for each of the molecules provided.
Numbers only, as −log10 of the molar value.

For orientation, consider the following solved cases.
item_smiles=Nc1nc(Nc2ccc(S(N)(=O)=O)cc2)sc1C(=O)c1c(F)cccc1F metric=pIC50 meas_value=5.77
item_smiles=CN1CCN(c2ccc(Nc3nc(N)c(C(=O)c4c(Cl)cncc4Cl)s3)cc2)CC1 metric=pIC50 meas_value=5.30
item_smiles=CN1CCN(c2ccc(Nc3nc(N)c(C(=O)c4c(Cl)cc(Br)c(N)c4Cl)s3)cc2)CC1 metric=pIC50 meas_value=5.10
item_smiles=Cc1cc([N+](=O)[O-])sc1C(=O)c1sc(Nc2ccc(S(N)(=O)=O)cc2)nc1N metric=pIC50 meas_value=5.41
item_smiles=COc1ccc(Nc2nc(N)c(C(=O)c3ccccc3I)s2)cc1 metric=pIC50 meas_value=5.72
item_smiles=Cc1ncsc1C(=O)c1sc(Nc2ccc(S(N)(=O)=O)cc2)nc1N metric=pIC50 meas_value=5.00

Your task in this section: give pIC50 for each listed record.
1. C[C@H]1CN(c2ccc(Nc3nc(N)c(C(=O)c4c(F)cccc4F)s3)cc2)CCN1C
2. CC(=O)Nc1ccc(Cl)c(C(=O)c2sc(Nc3ccc(N4CCN(C)CC4)cc3)nc2N)c1Cl

Key:
5.92
4.85
